# target.or.test.system: hPAR2 (Homo sapiens)
# experiment.summary: Ca^2+ flux assay, inhibition of trypsin activation in 1321N1-hPAR2 cells (with 1 µM Vorapaxar)
# Assay type: cell-based
readout.type: pIC50
pIC50 here is simply -log10 of the concentration when that concentration is written in mol/L.

Challenge: What value of pIC50 on hPAR2 (Homo sapiens) does CCCc1cc(F)ccc1C(O)c1ncc[nH]1 (stereo not shown) have?
Response given: 5.40

###

# target.or.test.system: hPAR2 (Homo sapiens, UniProt P55085)
# Sequence (P55085 26-397): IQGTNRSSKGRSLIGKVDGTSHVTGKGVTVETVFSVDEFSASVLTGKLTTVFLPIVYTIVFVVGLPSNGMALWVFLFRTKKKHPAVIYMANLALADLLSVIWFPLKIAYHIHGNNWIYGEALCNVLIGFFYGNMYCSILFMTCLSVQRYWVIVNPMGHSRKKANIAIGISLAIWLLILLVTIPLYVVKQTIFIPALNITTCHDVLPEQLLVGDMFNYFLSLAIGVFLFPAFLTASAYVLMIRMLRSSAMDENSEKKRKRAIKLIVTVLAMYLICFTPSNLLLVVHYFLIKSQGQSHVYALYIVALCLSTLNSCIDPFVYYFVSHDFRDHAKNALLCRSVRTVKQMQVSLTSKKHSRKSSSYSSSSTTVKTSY
# experiment.summary: β-arrestin-2 recruitment assay, inhibition of SLIGRL-NH2 in U2OS-hPAR2 cells
# Format: cell-based
readout.type: IC50 (nM)
Report the figure in nM without appending any unit label.

Challenge: What value of IC50 has been reported for the following compound? CCCc1cc(F)ccc1C(O)c1ncc[nH]1 (stereo not shown)
Response given: 794

###

# target.or.test.system: PAR4 (F2RL3) (Homo sapiens)
# experiment.summary: β-arrestin recruitment, DiscoverX profiling service, PAR4
# conditions: Arrestin, Agonist format, F2RL3; read-out: RC50 (EC50)
readout.type: EC50

Challenge: // EC50 lookup, key: CNC(=O)[C@H]1CC[C@@H](NC(=O)[C@H](CC2CCCCC2)NC(=O)c2cn(Cc3ccccc3)nn2)c2ccccc21
Response given: > 50 µM

###

# target.or.test.system: PAR4 (F2RL3) (Homo sapiens, UniProt Q96RI0)
# Sequence (Q96RI0 18-385): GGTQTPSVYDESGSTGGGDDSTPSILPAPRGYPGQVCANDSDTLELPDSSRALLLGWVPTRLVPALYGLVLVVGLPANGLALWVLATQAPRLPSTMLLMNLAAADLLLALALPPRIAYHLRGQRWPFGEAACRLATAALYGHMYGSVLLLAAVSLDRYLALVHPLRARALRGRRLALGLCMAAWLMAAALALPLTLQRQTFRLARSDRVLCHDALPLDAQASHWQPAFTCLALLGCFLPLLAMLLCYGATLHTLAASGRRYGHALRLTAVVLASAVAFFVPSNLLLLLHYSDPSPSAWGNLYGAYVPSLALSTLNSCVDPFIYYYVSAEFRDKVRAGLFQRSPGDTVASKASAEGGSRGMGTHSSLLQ
# experiment.summary: β-arrestin recruitment, DiscoverX profiling service, PAR4
# conditions: Arrestin, Antagonist format, F2RL3; read-out: RC50 (IC50)
pIC50: −log10 of the molar value.
readout.type: pIC50

Challenge: Quick one: pIC50 for CNC(=O)[C@H]1CC[C@@H](NC(=O)[C@H](CC2CCCCC2)NC(=O)c2cn(Cc3ccccc3)nn2)c2ccccc21 [AZ2429] ?
Response given: < 4.30

###

# target.or.test.system: hPAR2 (Homo sapiens, UniProt P55085)
# experiment.summary: IP1 HTRF assay, inhibition of SLIGRL-NH2 in 1321N1-hPAR2 cells
# Type: cell-based
readout.type: IC50 (nM)
Write the number in nM without appending the unit.

Challenge: Please look up its IC50: CCCc1cc(F)ccc1C(O)c1ncc[nH]1 (stereo not shown)
Response given: 1450

###

Below, each of the compounds is paired with its reported pKi value.
# target.or.test.system: hPAR2 (Homo sapiens)
# experiment.summary: Radiolabelled competition binding assay against [^3H]-GB110 on HEKexpi293F membranes
# Set-up: expressed in transfected cells
Peptide text beside a SMILES is read from it.
To interpret pKi, take it as minus log10 of a concentration measured in moles per litre.

# compound, target.or.test.system, pKi
data = [
    ("CC[C@H](C)[C@H](NC(=O)[C@H](CC(C)C)NC(=O)[C@@H](N)CO)C(=O)NCC(=O)N[C@@H](CCCCN)C(=O)N[C@H](C(N)=O)C(C)C [SLIGKV-NH2, reference compound] (H-SLIGKV-NH2)", "hPAR2 (Homo sapiens)", 6.33),
]

Consider the record given below.
Challenge: If you can, please state the reported pKi value of CCCc1cc(F)ccc1C(O)c1ncc[nH]1 (centres unmarked) .
Response given: 6.40

Reference for the values: paper PMC7747594
